Target: UniProt Q86YI8
Sequence (Q86YI8 whole entry): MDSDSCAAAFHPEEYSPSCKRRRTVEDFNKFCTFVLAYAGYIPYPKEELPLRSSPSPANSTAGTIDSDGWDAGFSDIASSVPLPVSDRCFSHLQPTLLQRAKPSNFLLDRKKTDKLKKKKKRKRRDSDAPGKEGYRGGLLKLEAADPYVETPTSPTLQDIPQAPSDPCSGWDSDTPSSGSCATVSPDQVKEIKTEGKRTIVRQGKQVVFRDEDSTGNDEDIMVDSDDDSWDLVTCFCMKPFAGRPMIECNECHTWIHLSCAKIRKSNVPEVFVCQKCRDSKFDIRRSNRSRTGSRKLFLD
Experiment: Binding affinity to PHF13 by chemiluminescent assay
Conditions: read-out: IC50
pIC50: −log10 of the molar value.
measurementLabel: pIC50

# smilesStructure, target, recordedMeasurement
records = [
    ("O=C(NCCCCCN1CCCC1)c1cncc(Br)c1", "UniProt Q86YI8", 4.32),
]

----------
Biological target: Lethal(3)malignant brain tumor-like protein 3 (Homo sapiens, UniProt Q96JM7)
Sequence (Q96JM7 whole entry): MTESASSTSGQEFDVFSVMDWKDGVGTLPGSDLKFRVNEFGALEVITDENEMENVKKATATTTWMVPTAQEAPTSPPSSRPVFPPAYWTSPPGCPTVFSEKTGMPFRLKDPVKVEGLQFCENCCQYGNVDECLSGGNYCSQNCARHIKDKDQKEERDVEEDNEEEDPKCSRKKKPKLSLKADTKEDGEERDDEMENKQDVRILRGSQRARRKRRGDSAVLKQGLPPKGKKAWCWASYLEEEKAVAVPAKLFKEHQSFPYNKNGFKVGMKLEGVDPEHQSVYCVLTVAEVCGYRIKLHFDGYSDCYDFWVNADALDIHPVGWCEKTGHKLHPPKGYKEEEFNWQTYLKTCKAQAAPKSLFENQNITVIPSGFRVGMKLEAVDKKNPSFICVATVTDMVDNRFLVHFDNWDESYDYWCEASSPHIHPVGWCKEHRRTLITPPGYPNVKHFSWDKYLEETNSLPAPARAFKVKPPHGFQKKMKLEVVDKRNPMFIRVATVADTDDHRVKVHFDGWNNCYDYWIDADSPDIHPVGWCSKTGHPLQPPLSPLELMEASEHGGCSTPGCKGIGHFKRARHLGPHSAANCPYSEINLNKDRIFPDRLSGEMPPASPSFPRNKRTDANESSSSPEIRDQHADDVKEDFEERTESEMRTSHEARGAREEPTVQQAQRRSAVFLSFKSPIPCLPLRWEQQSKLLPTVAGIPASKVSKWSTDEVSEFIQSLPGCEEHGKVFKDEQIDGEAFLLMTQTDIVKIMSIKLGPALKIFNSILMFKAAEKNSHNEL
pIC50: −log10 of the molar value.

# smilesStructure, pIC50
records = [
    ("O=C(c1cncc(Br)c1)N1CCC(N2CCCC2)CC1", 4.46),
    ("O=C(NCCCCCN1CCCC1)c1cncc(Br)c1", 4.55),
]
